From: PubChem BioAssay AID1224904

assay: DUX4 transcriptional activity inhibition in cells – 293T cells, Gaussia and Italica luciferase, primary screen (AID 1224904); settings: 293T-iDUX4 ZSCAN4-Gaussia luciferase reporter, 24 h; concentration not given here;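 further: 0% = median of neutral control wells and -100% = median of positive control wells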
In all, about 37,000 compounds went through this assay and about 290 (0.78%) were called active. Roughly 10% stayed inconclusive and do not appear here.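 How the source made its calls: active means mean inhibition of at least 10% in the main channel, exceeding the control channel by a set limit; inconclusive means inhibition of 10% or more but channel gap under a set limit; inactive means mean inhibition below 10%.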 The list comes from a sample in which actives are over-represented; it also holds close analogues and randomly drawn compounds.
Labels: active, inactive

COMPOUND: COCCN(C[C@H]1[C@@H](c2ccccc2)[C@H](CO)N1C(=O)C1CCC1)C(C)=O
CLASSIFICATION: inactive
--
COMPOUND: C[C@@H]1CN([C@@H](C)CO)C(=O)c2c(c3ccccc3n2C)-c2ccccc2CO[C@H]1CN(C)S(=O)(=O)c1cccs1
CLASSIFICATION: inactive
--
COMPOUND: C[C@H](CO)N1C[C@H](C)[C@@H](CN(C)Cc2ccc(C(F)(F)F)cc2)OCc2ccccc2-c2c(n(C)c3ccccc23)C1=O
CLASSIFICATION: active
--
COMPOUND: CCC(=O)Nc1ccc2c(c1)C(=O)N(C)C[C@H](OC)[C@@H](C)CN(Cc1nccs1)[C@H](C)CO2
CLASSIFICATION: inactive
--
COMPOUND: C[C@@H]1CN([C@H](C)CO)C(=O)c2c(c3ccccc3n2C)-c2ccccc2CO[C@@H]1CN(C)Cc1ccc(F)cc1
CLASSIFICATION: active
--
COMPOUND: C[C@@H]1CN([C@H](C)CO)C(=O)c2c(c3ccccc3n2C)-c2ccccc2CO[C@@H]1CN(C)Cc1ccccc1C(F)(F)F
CLASSIFICATION: active
--
COMPOUND: CCC(=O)N1CCC2(CC1)CN(Cc1cccc(Cl)c1)[C@@H](CO)c1c2c2ccc(OC)cc2n1C
CLASSIFICATION: inactive
--
COMPOUND: Cc1ccccc1S(=O)(=O)N(C)C[C@@H]1OCc2ccccc2-c2c(n(C)c3ccccc23)C(=O)N([C@H](C)CO)C[C@H]1C
CLASSIFICATION: active
--
COMPOUND: CCCNC(=O)N1CCC2(CC1)CN(C(=O)c1cccnc1)[C@@H](CO)c1[nH]c3cc(OC)ccc3c12
CLASSIFICATION: inactive
--
COMPOUND: O=C(CN1CCOCC1)N1C[C@@H]2N[C@H](C1)C2c1ccc(-c2ccncc2)cc1 (stereo partly specified)
CLASSIFICATION: inactive
--
COMPOUND: O=C1N[C@H](c2ccccc2)COCc2cn(nn2)CC[C@@H]1Cc1ccc(Cl)cc1
CLASSIFICATION: inactive
--
COMPOUND: COCC(=O)N1[C@H](CNC(=O)c2ccccn2)[C@H](c2ccccc2)[C@@H]1CO
CLASSIFICATION: inactive
--
COMPOUND: C[C@@H]1CN([C@@H](C)CO)C(=O)c2c(c3ccccc3n2C)-c2ccccc2CO[C@@H]1CN(C)S(=O)(=O)CC(F)(F)F
CLASSIFICATION: inactive
--
COMPOUND: CC(C)OC(=O)N(C)C[C@@H]1OCc2ccccc2-c2c(n(C)c3ccccc23)C(=O)N([C@H](C)CO)C[C@H]1C
CLASSIFICATION: inactive
--
COMPOUND: Cc1ccccc1-c1ccc(C2[C@@H]3CN(C(=O)C4CCCCC4)C[C@H]2N3)cc1 (stereo partly specified)
CLASSIFICATION: inactive
--
COMPOUND: CN1C(=O)c2cc(NC(=O)c3ccc(F)c(F)c3)ccc2OC[C@H]2O[C@@H](CC(=O)N3CCCCC3)CC[C@H]21
CLASSIFICATION: inactive

====

experiment: DUX4 transcriptional activity inhibition in cells – 293T cells, Gaussia and Italica luciferase, primary screen (AID 1224904); conditions: 293T-iDUX4 ZSCAN4-Gaussia luciferase reporter, 24 h; measured here: Italica tet-on control reporter; stronger effect = lower value; concentration not given here;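 further: 0% = median of neutral control wells and -100% = median of positive control wells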
Among all 37,000 compounds or so, about 290 (0.78%) were called active. Roughly 10% stayed inconclusive and do not appear here. What follows is part of a selection rich in actives, with near analogues and random picks from the rest.
Examples of compounds with documented activity change, negative = inhibition follow.

STRUCTURE_STRING: CCNC(=O)C[C@@H]1CC[C@@H]2[C@H](COC[C@H](O)CN2S(=O)(=O)c2ccc(Oc3ccccc3)cc2)O1
activity change, negative = inhibition (%): 2.14

STRUCTURE_STRING: C/C=C/c1ccc([C@H]2[C@@H](CO)N(C(=O)CN(C)C)C23CN(C(=O)C2CCCC2)C3)cc1
activity change, negative = inhibition (%): -6.7

STRUCTURE_STRING: N#C[C@@H]1[C@@H](c2ccc(C#Cc3cccc(F)c3)cc2)[C@H](CO)N1C(=O)C1CCOCC1
activity change, negative = inhibition (%): 1.95

STRUCTURE_STRING: O=C(C[C@@H]1CC[C@@H]2[C@H](COC[C@H](O)CN2S(=O)(=O)c2ccc(F)cc2)O1)NCc1ccc(Cl)c(Cl)c1
activity change, negative = inhibition (%): -12.4

====

assay: DUX4 transcriptional activity inhibition in cells – 293T cells, Gaussia and Italica luciferase, primary screen (AID 1224904); conditions: 293T-iDUX4 ZSCAN4-Gaussia luciferase reporter, 24 h; stronger effect = lower value; concentration not given here;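 further: 0% = median of neutral control wells and -100% = median of positive control wells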
Out of some 37,000 compounds screened, about 290 (0.78%) were called active. Not shown: some 10% with an inconclusive outcome. The sample as a whole holds a higher share of actives than the screen did.

STRUCTURE_STRING: CCN(C[C@@H]1[C@H](c2ccccc2)[C@@H](CO)N1CC1CC1)C(=O)c1ccccn1
activity change, negative = inhibition: -3.34% (inactive)
--
STRUCTURE_STRING: COc1ccc2c3c(n(C)c2c1)[C@H](CO)N(Cc1ccc(F)cc1)CC31CCN(C)CC1
activity change, negative = inhibition: -2.1% (inactive)
--
STRUCTURE_STRING: O=C(C1CCCCC1)N1CC(=O)N2[C@H](CO)[C@@H](c3ccc(-c4ccccc4F)cc3)[C@@H]2C1
activity change, negative = inhibition: -8.07% (inactive)
--
STRUCTURE_STRING: CN1C(=O)c2cc(NC(=O)c3cnccn3)ccc2OC[C@@H]2O[C@H](CC(=O)NC3CCC3)CC[C@@H]21
activity change, negative = inhibition: 3.24% (inactive)

====

assay: DUX4 transcriptional activity inhibition in cells – 293T cells, Gaussia and Italica luciferase, primary screen (AID 1224904); conditions: 293T-iDUX4 ZSCAN4-Gaussia luciferase reporter, 24 h; measured here: Italica tet-on control reporter; stronger effect = lower value; concentration not given here;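 further: 0% = median of neutral control wells and -100% = median of positive control wells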
Out of some 37,000 compounds screened, about 290 (0.78%) were called active. Another 10% or so got no clear call; they are omitted. Shown is part of a subset that was picked to be rich in actives.
Examples of molecules with documented activity change, negative = inhibition follow.
PARAMETER_MEASURED: activity change, negative = inhibition (%)

MOLECULE: COc1ccccc1C#Cc1ccc([C@@H]2[C@@H](CO)N3CCCCN(S(C)(=O)=O)C[C@@H]23)cc1
PARAMETER_MEASURED: activity change, negative = inhibition
UNIT_ABBREVIATION: %
VALUE_REPORTED: 5.65
//
MOLECULE: CCCNC(=O)N1CCC2(CC1)CN(C(=O)c1cccnc1)[C@@H](CO)c1[nH]c3cc(OC)ccc3c12
PARAMETER_MEASURED: activity change, negative = inhibition
UNIT_ABBREVIATION: %
VALUE_REPORTED: -3.75
//
MOLECULE: N#C[C@H]1[C@@H](c2ccc(-c3ccccc3F)cc2)[C@H](CO)N1C(=O)c1ccccn1
PARAMETER_MEASURED: activity change, negative = inhibition
UNIT_ABBREVIATION: %
VALUE_REPORTED: 1.69
//
MOLECULE: C[C@@H](O)C#Cc1ccc([C@@H]2[C@H]3CN(S(=O)(=O)c4ccccc4)CCCCN3[C@H]2CO)cc1
PARAMETER_MEASURED: activity change, negative = inhibition
UNIT_ABBREVIATION: %
VALUE_REPORTED: 12.9
//
MOLECULE: COc1cccc(CNC(=O)C[C@@H]2CC[C@H]3[C@@H](COc4ccc(NC(=O)c5cccs5)cc4C(=O)N3C)O2)c1
PARAMETER_MEASURED: activity change, negative = inhibition
UNIT_ABBREVIATION: %
VALUE_REPORTED: -2.71
//
MOLECULE: C[C@@H]1CN([C@@H](C)CO)C(=O)Cc2cc(NC(=O)Nc3cccc4ccccc34)ccc2O[C@H]1CN(C)S(=O)(=O)c1ccc(Cl)cc1
PARAMETER_MEASURED: activity change, negative = inhibition
UNIT_ABBREVIATION: %
VALUE_REPORTED: 3.22
//
MOLECULE: C[C@@H](O)C#Cc1ccc([C@@H]2[C@H](CO)N3CCCCN(S(=O)(=O)c4ccccc4)C[C@@H]23)cc1
PARAMETER_MEASURED: activity change, negative = inhibition
UNIT_ABBREVIATION: %
VALUE_REPORTED: -3.26
//
MOLECULE: O=C(Nc1cccc(F)c1)N1CCCCN2[C@H](CO)[C@H](c3ccc(C#CC4CC4)cc3)[C@@H]2C1
PARAMETER_MEASURED: activity change, negative = inhibition
UNIT_ABBREVIATION: %
VALUE_REPORTED: 5.1
//
MOLECULE: CO[C@@H]1CC[C@@H]2CCOc3c(C#N)cccc3C(=O)N(C)C[C@@H](C)C(=O)N(C)C[C@@H]1O2
PARAMETER_MEASURED: activity change, negative = inhibition
UNIT_ABBREVIATION: %
VALUE_REPORTED: -1.5
//
MOLECULE: COc1ccccc1C#Cc1ccc([C@H]2[C@@H](C#N)N(C(=O)C3CCCCC3)[C@@H]2CO)cc1
PARAMETER_MEASURED: activity change, negative = inhibition
UNIT_ABBREVIATION: %
VALUE_REPORTED: -0.0756
//
MOLECULE: CN(C)CC#Cc1ccc([C@@H]2[C@H](CO)N3CCCCN(C(=O)Nc4ccc(F)cc4)C[C@@H]23)cc1
PARAMETER_MEASURED: activity change, negative = inhibition
UNIT_ABBREVIATION: %
VALUE_REPORTED: 5.12
//
MOLECULE: CC=Cc1ccc2n(c1=O)C[C@@H]1[C@@H](CO)[C@H](C(=O)NCCC)[C@H]2N1C(=O)C1CC1 (mixture of isomers)
PARAMETER_MEASURED: activity change, negative = inhibition
UNIT_ABBREVIATION: %
VALUE_REPORTED: 5.5
//
MOLECULE: CCC(=O)N1CC2(C1)CN(Cc1nccs1)[C@@H](CO)c1c2c2ccc(OC)cc2n1C
PARAMETER_MEASURED: activity change, negative = inhibition
UNIT_ABBREVIATION: %
VALUE_REPORTED: 2.76
//
MOLECULE: COc1ccccc1C#Cc1ccc([C@H]2[C@H](CO)N3CCCCN(C(=O)C4CCC4)C[C@@H]23)cc1
PARAMETER_MEASURED: activity change, negative = inhibition
UNIT_ABBREVIATION: %
VALUE_REPORTED: -8.62
//
MOLECULE: O=C(C[C@@H]1CC[C@@H]2[C@H](COC[C@H](O)CN2CC2CCOCC2)O1)NCC1CCCCC1
PARAMETER_MEASURED: activity change, negative = inhibition
UNIT_ABBREVIATION: %
VALUE_REPORTED: 11.5
//
MOLECULE: C/C=C/c1ccc([C@H]2[C@@H](CO)N(S(C)(=O)=O)[C@@H]2CN(C)C(=O)CC)cc1
PARAMETER_MEASURED: activity change, negative = inhibition
UNIT_ABBREVIATION: %
VALUE_REPORTED: -3.34
